Where do the numbers come from? From paper PMC3164379.

methodSummary: Cytotoxicity against confluent MDCK cells by MTT method
Assay type: cell-based
conditionsUsed: dog, read-out: CC50 (50% cytotoxicity concentration)
quantityName: CC50 at 72 h

GET /value?item= COC(=O)[C@]1(Cc2ccc(O)c(CC=C(C)C)c2)OC(=O)C(O)=C1c1ccc(O)cc1 [Compound 5, butyrolactone I] &field=CC50 at 72 h returns 976 µM

----------
System: influenza virus (A/Puerto Rico/8/34 (H1N1), PR/8)
methodSummary: Antiviral activity against H1N1, CPE inhibition assay
Format: cell-based
conditionsUsed: MDCK, 48 h, read-out: IC50 anti-H1N1 activity
quantityName: IC50

IC50 measured on "COC(=O)[C@]1(Cc2ccc(O)c(CC=C(C)C)c2)OC(=O)C(O)=C1c1ccc(O)cc1" = 143 µM
